- Measured target: Cytochrome P450 3A4 (Homo sapiens)
- Sequence (P08684 whole entry): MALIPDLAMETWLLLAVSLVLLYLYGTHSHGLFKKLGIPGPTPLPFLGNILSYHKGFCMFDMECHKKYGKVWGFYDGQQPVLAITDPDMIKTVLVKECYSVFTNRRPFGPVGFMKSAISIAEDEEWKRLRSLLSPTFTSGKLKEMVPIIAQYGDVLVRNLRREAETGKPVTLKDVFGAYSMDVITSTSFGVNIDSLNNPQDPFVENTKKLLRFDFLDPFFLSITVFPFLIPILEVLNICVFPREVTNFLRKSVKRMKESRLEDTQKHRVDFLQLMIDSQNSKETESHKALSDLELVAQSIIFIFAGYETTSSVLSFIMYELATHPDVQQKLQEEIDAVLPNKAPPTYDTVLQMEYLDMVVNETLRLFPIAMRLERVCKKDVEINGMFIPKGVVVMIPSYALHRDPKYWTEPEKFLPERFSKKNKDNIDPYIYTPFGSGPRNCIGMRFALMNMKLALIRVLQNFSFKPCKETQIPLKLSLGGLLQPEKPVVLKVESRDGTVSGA
Endpoint: IC50 (µM)
Give just the numeric value; µM need not be written.

Noted IC50 for `O=C(NO)c1ccc(-c2ccc(CNCc3ccccc3)cn2)s1` , tested on Cytochrome P450 3A4 (Homo sapiens): 26

====

- Protocol notes: AUC after oral dosing at 5 mg kg-1
- Type: ADME, organism-based, Plasma
- Parameters: dose 5 mg kg-1, route oral
- Settings: mouse, plasma
Endpoint: AUC

# Compound structure, AUC
rows = [
    ("O=C(CCCCCCC(=O)Nc1ccccc1)NO", "200 ng·h/mL"),
]

Here is the next item to consider.
The compound listed as `O=C(NO)c1ccc(-c2ccc(CNCc3ccccc3)cn2)s1` has a reported AUC of 360 ng·h/mL

====

# Lookup of reported half-life keyed by entry
- Protocol notes: Half life after i.v. dosing at 1 mg kg-1
- Assay type: ADME, organism-based
- Parameters: dose 1 mg kg-1, route intravenous
- Settings: rat, in vivo, iv
Give just the numeric value; h need not be written.

Known results for compounds:
# Compound structure, half-life (h)
data = [
    ("O=C(NO)c1ccc(-c2ccc(CNCc3ccccc3)cn2)s1", 2.7),
    ("O=C(CCCCCCC(=O)Nc1ccccc1)NO", 0.7),
]

Here is the next item to consider.
The compound listed as `O=C(NO)c1ccc(-c2ccn(CCNCc3ccc4c(c3)OCO4)n2)s1` has a reported half-life of 1.6

====

- Measured target: UniProt Q13547
- Sequence (Q13547 whole entry): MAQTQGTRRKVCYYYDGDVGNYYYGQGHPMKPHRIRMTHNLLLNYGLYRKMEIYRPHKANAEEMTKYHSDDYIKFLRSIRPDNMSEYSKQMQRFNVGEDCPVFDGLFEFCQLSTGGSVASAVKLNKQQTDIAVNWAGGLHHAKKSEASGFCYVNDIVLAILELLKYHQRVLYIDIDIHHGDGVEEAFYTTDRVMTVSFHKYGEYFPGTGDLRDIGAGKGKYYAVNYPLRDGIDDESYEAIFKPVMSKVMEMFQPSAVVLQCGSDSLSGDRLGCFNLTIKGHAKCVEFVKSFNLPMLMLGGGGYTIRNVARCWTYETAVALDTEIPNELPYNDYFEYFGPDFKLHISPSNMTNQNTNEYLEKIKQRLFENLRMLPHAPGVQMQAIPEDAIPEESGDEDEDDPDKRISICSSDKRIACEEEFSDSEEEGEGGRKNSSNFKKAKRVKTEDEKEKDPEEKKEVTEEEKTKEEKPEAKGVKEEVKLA
- Protocol notes: Inhibition of HDAC activity measured by HDAC Fluorescent Activity Assay (mean of two experiments)
Endpoint: pIC50
Schema: pIC50 number; meaning minus log10 of the concentration expressed in molar units.

Known results for molecules:
# Compound structure, Measured target, pIC50
records = [
    ("O=C(NO)c1ccc(-c2ccc(CNCc3ccccc3)cn2)s1", "UniProt Q13547", 7.80),
    ("O=C(NO)c1ccc(-c2cccc(CNCCc3ccccc3)n2)s1", "UniProt Q13547", 6.24),
]

The molecule listed as `O=C(NO)c1ccc(-c2ccc(NCCc3ccccc3)cn2)s1` has a reported pIC50 of 7.10

The molecule listed as `O=C(NO)c1ccc(-c2ccc(CCNCc3ccc(F)cc3)cn2)s1` has a reported pIC50 of 7.89

The molecule listed as `Cc1ccccc1CCNCc1ccc(-c2ccc(C(=O)NO)s2)nc1` has a reported pIC50 of 8.10

====

- System: MCF7
- Protocol notes: Inhibition of MCF7 cell proliferation (mean of two experiments)
- Assay type: functional, cell-based
- Settings: Homo sapiens
# Lookup of reported pIC50 keyed by entry
Schema: pIC50 number; meaning minus log10 of the concentration expressed in molar units.

Known results for compounds:
# Compound structure, pIC50
measured = [
    ("O=C(NO)c1ccc(-c2ccc(CCNCc3ccc(F)cc3)cn2)s1", 7.05),
    ("O=C(NO)c1ccc(-c2ccc(CCNCCc3ccccc3)cn2)s1", 6.85),
    ("O=C(NO)c1ccc(-c2ncccn2)s1", 5.67),
]

Here is the next item to consider.
The compound listed as `Cc1ccc(CCNCc2ccc(-c3ccc(C(=O)NO)s3)nc2)cc1` has a reported pIC50 of 7.22

====

- Protocol notes: Steady state volume of distribution (Vdss) after i.v. dosing at 1 mg kg-1
- Format: ADME, organism-based
- Parameters: dose 1 mg kg-1, route intravenous
- Settings: mouse, in vivo, iv, read-out: Vdss
Endpoint: Vd (L/kg)
Give just the numeric value; L/kg need not be written.

Known results for compounds:
# Compound structure, Unit, Vd
data = [
    ("O=C(NO)c1ccc(-c2ccc(CNCc3ccccc3)cn2)s1", "L/kg", 1.1),
    ("O=C(NO)c1ccc(-c2ccn(CCNCc3ccc4c(c3)OCO4)n2)s1", "L/kg", 0.4),
]

Here is the next item to consider.
The compound listed as `O=C(CCCCCCC(=O)Nc1ccccc1)NO` has a reported Vd of 2.1
